Source: PubChem BioAssay (NCI)

tested on: RPMI-8226 leukemia; experiment: NCI-60 one-dose screen, 48 h (100 = growth as untreated, 0 = no growth, -100 = all killed); details: 10 µM unless noted
The panel holds about 83,000 compounds, 20% with a hit somewhere; the sample as a whole holds those more often. Active and inactive are the calls of the source. The calls were made as follows: active = growth percent below 10; inactive = the rest.
Overview of recorded growth for various compounds
measuredMetric: growth

- compound: "CSc1nccc(-c2c(-c3ccc(F)c(OCc4ccc(F)cc4)c3)nc3sccn23)n1"
  testedOn: "RPMI-8226 leukemia"
  measuredMetric: "growth"
  valueMeasured: "53.2% (inactive)"
- compound: "CC1CCc2c(sc3nc(SCC(=O)N/N=C/c4cccc(O)c4O)n(-c4ccccc4)c(=O)c23)C1 (centres undefined)"
  testedOn: "RPMI-8226 leukemia"
  measuredMetric: "growth"
  valueMeasured: "89.1% (inactive)"
- compound: "C#CCOc1ccc(/C=N/Nc2nc(-c3cc(Cl)ccc3Cl)cs2)cc1"
  testedOn: "RPMI-8226 leukemia"
  measuredMetric: "growth"
  valueMeasured: "76.8% (inactive)"
- compound: "O=C(O)c1ccc(-n2cc(CNc3ccc(F)cc3)c(-c3ccc(C(F)(F)F)cc3)n2)cc1"
  testedOn: "RPMI-8226 leukemia"
  measuredMetric: "growth"
  valueMeasured: "86.5% (inactive)"
- compound: "Cc1nc(-c2cc3ccccc3c(N3CCN(C)CC3)n2)cs1"
  testedOn: "RPMI-8226 leukemia"
  measuredMetric: "growth"
  valueMeasured: "99.2% (inactive)"
- compound: "O=c1oc2ccc(-c3ccc(F)cc3F)cc2c(=O)n1-c1cccc(C(F)(F)F)c1"
  testedOn: "RPMI-8226 leukemia"
  measuredMetric: "growth"
  valueMeasured: "-12.9% (active)"
- compound: "COc1ccc([C@H]2[C@H](O)C(=O)N2c2cc(OC)c(OC)c(OC)c2)cc1"
  testedOn: "RPMI-8226 leukemia"
  measuredMetric: "growth"
  valueMeasured: "22.8% (inactive)"
- compound: "CC(=O)Oc1ccc(CCN2C(=O)CSC2=S)cc1"
  testedOn: "RPMI-8226 leukemia"
  measuredMetric: "growth"
  valueMeasured: "37.6% (inactive)"
- compound: "C=C1C(=O)O[C@@H]2C[C@@H](C)CCC(=O)[C@](C)(OC(C)=O)C[C@H](OC(=O)/C(C)=C\\C)[C@@H]12"
  testedOn: "RPMI-8226 leukemia"
  measuredMetric: "growth"
  valueMeasured: "32.3% (inactive)"
- compound: "NS(=O)(=O)c1ccc(Nc2nc(N/N=C/c3ccc(C(F)(F)F)cc3)nc(Nc3ccccc3)n2)cc1"
  testedOn: "RPMI-8226 leukemia"
  measuredMetric: "growth"
  valueMeasured: "-5.16% (active)"
- compound: "C#CCOc1ccccc1C(Nc1ccccc1)c1nnnn1C1CCCCC1 (centres undefined)"
  testedOn: "RPMI-8226 leukemia"
  measuredMetric: "growth"
  valueMeasured: "89.7% (inactive)"
- compound: "O=C(CSc1nnc(-c2cccs2)n1-c1ccccc1)Nc1ccc(F)cc1"
  testedOn: "RPMI-8226 leukemia"
  measuredMetric: "growth"
  valueMeasured: "105% (inactive)"
- compound: "O=C1[C@H]2Cc3c([nH]c4ccccc34)[C@H](c3ccc(Cl)cc3)N2C(=O)CN1C1CCN(Cc2c(Cl)cccc2Cl)CC1"
  testedOn: "RPMI-8226 leukemia"
  measuredMetric: "growth"
  valueMeasured: "50.3% (inactive)"
- compound: "COc1cc2c3c(n(CCCNC4CCCCC4)c(=O)c2cc1OC)-c1cc2c(cc1C3=O)OCO2"
  testedOn: "RPMI-8226 leukemia"
  measuredMetric: "growth"
  valueMeasured: "-46.5% (active)"
- compound: "COc1cc(/C=N/Nc2ccnc3cc(Cl)ccc23)cc(OC)c1O"
  testedOn: "RPMI-8226 leukemia"
  measuredMetric: "growth"
  valueMeasured: "-9.43% (active)"
- compound: "COc1cc(/C=C/C(=O)c2ccc(NC(=O)CSc3nnc(-c4ccc5nc(-c6ccccc6)[nH]c5c4)o3)cc2)cc(OC)c1OC"
  testedOn: "RPMI-8226 leukemia"
  measuredMetric: "growth"
  valueMeasured: "30.7% (inactive)"
- compound: "Cc1cc(C(=O)Nc2ccc(SC#N)cc2)c(C)o1"
  testedOn: "RPMI-8226 leukemia"
  measuredMetric: "growth"
  valueMeasured: "83.1% (inactive)"
- compound: "COC[C@]12CC[C@@H](C)[C@H](C)[C@H]1C1=CC[C@@H]3[C@@]4(C)CCCNC(C)(C)[C@@H]4CC[C@@]3(C)[C@]1(C)CC2"
  testedOn: "RPMI-8226 leukemia"
  measuredMetric: "growth"
  valueMeasured: "2.86% (active)"
- compound: "O=c1oc2ccc(-c3ccc(F)cc3F)cc2c(=O)n1-c1ccc(F)c(F)c1"
  testedOn: "RPMI-8226 leukemia"
  measuredMetric: "growth"
  valueMeasured: "-19.1% (active)"
